Overview of reported pKd across a group of binders:
Target: T1, Human ST2 (human, UniProt Q01638 19-328, limits assumed)
T1 construct: also called human ST2 protein; Interleukin 1 receptor-like 1
T1 sequence (looked up): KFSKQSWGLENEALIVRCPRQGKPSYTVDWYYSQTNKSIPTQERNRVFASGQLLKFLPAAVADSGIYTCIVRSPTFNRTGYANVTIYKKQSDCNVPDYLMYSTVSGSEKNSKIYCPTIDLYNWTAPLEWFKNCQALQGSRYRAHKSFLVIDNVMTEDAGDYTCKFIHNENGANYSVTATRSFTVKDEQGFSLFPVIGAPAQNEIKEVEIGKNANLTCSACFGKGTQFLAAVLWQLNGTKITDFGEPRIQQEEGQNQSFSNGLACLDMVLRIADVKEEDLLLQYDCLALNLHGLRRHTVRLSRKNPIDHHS
Assay: SPR (Carterra), antibody immobilized, ST2 analyte
Answer as the number alone; pKd is minus log10 of concentration in mol/L.

{"binder": "Human ST2 IgG1 Antibody 82 (antibody, V domains shown, IgG1; also called ST2 Antibody 82) VH: QVQLVQSGAEVKKPGASVKVSCKASGYTFTENEMHWVRQAPGQGLEWMGWISAYNGDTNYAQKFQGRVTMTRDTSTSTVYMELSSLRSEDTAVYYCAKEVRLDDDEMWYFDLWGRGTLVTVSS VL: DIQMTQSPSSLSASVGDRVTITCRASQDINNFLVWYQQKPGKAPKLLIYDASNLETGVPSRFSGSGSGTDFTLTISSLQPEDFATYYCQQAYSFPLTFGGGTKVEIKR", "pKd": 6.69}

pKd recorded for this binder, Human ST2 IgG1 Antibody 76 (antibody, V domains shown, IgG1; also called ST2 Antibody 76) VH: QVQLVQSGAEVKKPGSSVKVSCKASGYTFTDYYMHWVRQAPGQGLEWMGVIIPVLGAAKYAQKFQGRVTITADESTSTAYMELSSLRSEDTAVYYCAKGWGAFDIWGQGTMVTVSS VL: EIVMTQSPATLSVSPGERATLSCRASQSVSSYLAWYQQKPGQAPRLLIYGASTRASGIPARFSGSGSGTEFTLTISSLQSEDFAVYYCQQYYSYPWTFGQGTKVEIKR , is 6.88

# pKd of Human ST2 IgG1 Antibody 57 (antibody, V domains shown, IgG1; also called ST2 Antibody 57) VH: QVQLVQSGAEVKKPGASVKVSCKASGYTFTGYYMHWVRQAPGQGLEWMGVINPSGGSTSYAQKFQGRVTMTRDTSTSTVYMELSSLRSEDTAVYYCARGDYYYGSGSDYYYYYGMDVWGQGTLVTVSS VL: DIQMTQSPSSLSASVGDRVTITCRASQGVTSWLAWYQQKPGKAPKLLIYAASTLQSGVPSRFSGSGSGTDFTLTISSLQPEDFATYYCQQANSFPLTFGGGTKVEIKR = 6.85

The recorded pKd for Human ST2 IgG1 Antibody 62 (antibody, V domains shown, IgG1; also called ST2 Antibody 62) VH: QVQLVQSGAEVKKPGSSVKVSCKASGYIFTNYWIQWVRQAPGQGLEWMGGIIPIFETANYAQKFQGRVTITADDSTSTAYMELSSLRSEDTAVYYCARLGDRGDFDYWGQGTLVTVSS VL: DIVMTQSPDSLAVSLGERATINCKSSQSISHSPNTRDYLAWYQQKPGQPPKLLIYWASTRESGVPDRFSGSGSGTDFTLTISSLQAEDVAVYYCQQYYRFPLAFGQSTKVEIKR is 7.15

// pKd value for Human ST2 IgG1 Antibody 43 (antibody, V domains shown, IgG1; also called ST2 Antibody 43) VH: QVQLVQSGAQVKKPGASVKVSCKASGYTFSSYYIHWVRQAPGQGLEWMGWINPHSGGTNYGQEFQGRVTMTRDTSTSTVYMELSSLRSEDTAVYYCARDSSGMGATIGYWGQGTLVTVSS VL: DIQMTQSPSSLSASVGDRVTITCRASQSVNRRLAWYQQKPGKAPKLLIYAASTLQSGVPSRFSGSGSGTDFTLTISSLQPEDFATYYCQQGNSFPITFGQGTKVEIKR : 6.84

Notebook: Human ST2 IgG1 Antibody 65 (antibody, V domains shown, IgG1; also called ST2 Antibody 65) VH: QVQLVQSGAEVKKPGSSVKVSCKASGGTFSSYAISWVRQAPGQGLEWMGGIIPIFGTANYAQKFQGRVTITADESTSTAYMELSSLRSEDTAVYYCARDNPDFDYWGQGTLVTVSS VL: DIQMTQSPSSLSASVGDRVTITCRASQGISNYLNWYQQKPGKAPKLLIYAASSLQSGVPSRFSGSGSGTDFTLTISSLQPEDFATYYCQQSYRTPITFGQGTRLEIKR , pKd read as 7.12

Record Human ST2 IgG1 Antibody 80 (antibody, V domains shown, IgG1; also called ST2 Antibody 80) VH: QVQLVQSGAEVKKPGSSVKVSCKASGGTFSSYAISWVRQAPGQGLEWMGGIIPIFGTANYAQKFQGRVTITADESTSTAYMELSSLRSEDTAVYYCARVMVAGTGYYFDYWGQGTLVTVSS VL: DIVMTQSPLSLPVTPGEPASISCRSSQSLLHSNGYNYLDWYLQKPGQSPQLLIYGASSLQSGVPDRFSGSGSGTDFTLKISRVEAEDVGVYYCMQGLHTPPTFGQGTKLEIKR . Reported pKd: 6.07

Human ST2 IgG1 Antibody 51 (antibody, V domains shown, IgG1; also called ST2 Antibody 51) VH: QVQLVQSGAEVKKPGSSVKVSCKASGGSFSRSSISWVRQAPGQGLEWMGGIIPIFGAPVYAQDLQGRVTITADESTSTAYMELSSLRSEDTAVYYCARDHPHCSSTSCYYGMDVWGQGTTVTVSS VL: EIVMTQSPATLSVSPGERATLSCRASQTISSSYLAWYQQKPGQAPRLLIYGASTRATGIPARFSGSGSGTEFTLTISSLQSEDFAVYYCQQYGSSPLTFGGGTKVEIKR yielded pKd of 6.81

Field pKd (entry Human ST2 IgG1 Antibody 9 (antibody, V domains shown, IgG1; also called ST2 Antibody 9) VH: EVQLLESGGGLVQPGGSLRLSCAASGFAFSSHWMHWVRQAPGKGLEWVATISSGSHSIHYADSVKGRFTISRDNSKNTLYLQMNSLRAEDTAVYYCAREAGTSYYYYGMDVWGKGTTVTVSS VL: DIQMTQSPSSLSASVGDRVTITCQASQDIRNYLNWYQQKPGKAPKLLIYKASSLESGVPSRFSGSGSGTDFTLTISSLQPEDFATYYCQQSYSTPPTFGGGTKVEIKR ) reads 6.53

Please fill in: pKd reported for Human ST2 IgG1 Antibody 98 (antibody, V domains shown, IgG1; also called ST2 Antibody 98) VH: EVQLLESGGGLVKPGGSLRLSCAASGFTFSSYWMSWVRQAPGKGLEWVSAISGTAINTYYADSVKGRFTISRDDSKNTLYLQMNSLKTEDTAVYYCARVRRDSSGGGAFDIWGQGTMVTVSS VL: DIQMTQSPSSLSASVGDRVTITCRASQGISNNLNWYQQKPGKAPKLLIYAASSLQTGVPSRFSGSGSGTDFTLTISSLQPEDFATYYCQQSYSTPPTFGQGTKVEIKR = 7.02
